// compounds with IC50 on Receptor-type tyrosine-protein kinase FLT3 (Homo sapiens), multi-source literature

- CHEMICAL_SMILES: "CCc1nc2c(N)ncc(Br)c2nc1N[C@@H]1CC[C@H](O)C1"
  READING: "100 to 500 nM"

Q: Return value of IC50 for input C[C@@H](CC(F)(F)F)Nc1ncc2c(C3=CCN(C(=O)OC(C)(C)C)CC3)cc([C@H]3CC[C@H](O)CC3)n2n1 , no commentary.
Result: ≤ 100 nM

Q: Specify reported IC50 for the compound shown: COC[C@H](C)Nc1ncc2c(-c3ccnc(N[C@@H]4CCOC4)c3)cc([C@H]3CC[C@H](O)CC3)n2n1
Result: 100 to 1000 nM

Q: Input COC[C@H](C)Nc1ncc2c(-c3cnn(C(C)(C)C(=O)N4CCO[C@@H](C(C)(C)O)C4)c3)cc([C@H]3CC[C@H](O)CC3)n2n1 , output reported IC50.
Result: 1000 to 10000 nM

Q: Could you please provide reported IC50 for CC[C@H](C)Nc1ncc2c(=O)n(C[C@H]3COCCN3C)cc([C@H]3CC[C@H](O)CC3)c2n1 ? Thanks!
Result: 1000 to 10000 nM

Q: Assign IC50 to the following record: CCCCC[C@H](C)Nc1ncc2c(-c3ccc(S(=O)(=O)N4CCOCC4)cc3)cc([C@H]3CC[C@H](O)CC3)n2n1
Result: 100 to 1000 nM

Q: Return reported IC50. Input compound: CCc1nc2c(N)ncc(-c3cnn(C4CCN(C5CN(C)C5)CC4)c3)c2nc1N[C@@H]1CC[C@H](O)C1
Result: ≤ 10 nM

Q: Quote IC50 reported for CNC(=O)c1cc(-c2cc([C@H]3CC[C@H](O)CC3)n3nc(N[C@@H](C)COC(F)F)ncc23)ccn1 please.
Result: 100 to 1000 nM

Q: Tell me measured IC50 for CNS(=O)(=O)c1cncc(-c2cc([C@H]3CC[C@H](O)CC3)n3nc(N[C@@H](C)CC(F)(F)F)ncc23)c1 please.
Result: 100 to 1000 nM

Q: Please report IC50 for the following compound: CNCCCNc1nc2ccccc2c2c(=O)c3cc(F)ccc3sc12
Result: 201 to 500 nM

Q: Please report the measured IC50 for CCn1cc(Nc2ccc(Cc3c[nH]c4ncnc(C5CC5)c34)c(F)n2)cn1
Result: > 1000 nM

Q: Find the measured IC50 of O=C1Nc2cc(NC(=O)c3c[nH]cc(-c4ccc(Cl)cc4)c3=O)ccc2/C1=C/c1ccc[nH]1 and report it.
Result: 7.6 nM

Q: Write down IC50 measured for item NCCCNc1nc2ccccc2c2c(=O)c3cc(Cl)ccc3sc12
Result: 501 to 1000 nM

Q: Query IC50 for CNC(=O)N1CCC(c2cnc(OC3CCOCC3)c3cnc(N[C@@H](C)COC)nc23)CC1
Result: 1000 to 10000 nM

Q: Give the reported IC50 for this compound. COC[C@H](C)Nc1ncc2c(-c3cncc(C)c3)cc([C@H]3CC[C@H](O)CC3)n2n1
Result: 1000 to 10000 nM

====

A compilation of published IC50 results with Receptor-type tyrosine-protein kinase FLT3 (Homo sapiens, UniProt P36888).

Q: Print Receptor-type tyrosine-protein kinase FLT3 (Homo sapiens, UniProt P36888) IC50 for COC[C@H](C)Nc1ncc2c(-c3cnn(C4COC4)c3)cc([C@@H]3CC[C@@H](O)[C@H](C)C3)n2n1 .
Result: 100 to 1000 nM

Q: Enter measured IC50, system Receptor-type tyrosine-protein kinase FLT3 (Homo sapiens, UniProt P36888), for the compound shown: CCc1nc2c(N)ncc(-c3ccc(N4CCC(N5CCN(C)CC5)CC4)c(OC)c3)c2nc1N[C@@H]1CC[C@@H](O)C1
Result: ≤ 10 nM

Q: Name the recorded IC50 of CN1CCN(c2ccc3[nH]c(-c4cc(-c5ccc(NC(=O)Nc6cccc(F)c6)cc5)[nH]n4)nc3c2)CC1 , assay system Receptor-type tyrosine-protein kinase FLT3 (Homo sapiens, UniProt P36888).
Result: < 50 nM

Q: Give IC50 for CC[C@H](C)Nc1ncc2c(-c3ccc(CN4CCN(C)CC4)cc3)cc([C@H]3CC[C@](C)(O)CC3)n2n1 (relative stereo) tested on Receptor-type tyrosine-protein kinase FLT3 (Homo sapiens, UniProt P36888).
Result: ≤ 100 nM

Q: Provide the reported IC50 (system: Receptor-type tyrosine-protein kinase FLT3 (Homo sapiens, UniProt P36888)) for COC[C@H](C)Nc1ncc2c(-c3ccnc([S@@](C)(=N)=O)c3)cc([C@H]3CC[C@H](O)CC3)n2n1
Result: 1000 to 10000 nM

Q: System Receptor-type tyrosine-protein kinase FLT3 (Homo sapiens, UniProt P36888). Read-out IC50. Item CCc1nc2c(N)ncc(-c3cnn(-c4ccc(C(C)(C)O)nc4)c3)c2nc1NC1CCOCC1 . Report value.
Result: ≤ 10 nM

Q: Consider the compound COc1ccc2sc3c(NCCCN)nc4ccccc4c3c(=O)c2c1 tested on Receptor-type tyrosine-protein kinase FLT3 (Homo sapiens, UniProt P36888); state its IC50.
Result: 51 to 200 nM

====

Listing of IC50 toward Receptor-type tyrosine-protein kinase FLT3 (Homo sapiens, UniProt P36888), each taken from a published source.

The examples below pair each entry with its known result.
- CHEMICAL_SMILES: "COC[C@H](C)Nc1ncc2c(-c3ccnc(O[C@H]4CCNC4)c3)cc([C@H]3CC[C@H](O)CC3)n2n1"
  IC50: "100 to 1000 nM"
- CHEMICAL_SMILES: "CCc1ccc(Nc2ccc(Cc3c[nH]c4ncnc(C)c34)c(F)n2)cn1"
  IC50: "< 100 nM"
- CHEMICAL_SMILES: "COC[C@H](C)Nc1ncc2c(-c3ccc([C@@H](C)N4CCOCC4)cc3)cc([C@H]3CC[C@H](O)CC3)n2n1"
  IC50: "100 to 1000 nM"
- CHEMICAL_SMILES: "CNc1cc(-c2cc([C@H]3CC[C@H](O)CC3)n3nc(N[C@@H](C)COC)ncc23)ccn1"
  IC50: "100 to 1000 nM"
- CHEMICAL_SMILES: "O=C(c1ccc(F)nc1)N1CCC[C@H]1c1nc(Nc2cc(C3CC3)[nH]n2)c2cccn2n1"
  IC50: "29 nM"

Q: // fetch IC50 given entry Cc1cnc(Nc2ccc(N3CCC(N(C)CC4CC4)CC3)c(F)c2)nc1-c1cnn(C(C)C)c1
Result: 9 nM

Q: Identify IC50 associated with the compound COC[C@H](C)Nc1ncc2c(-c3cnn(C4COC4)c3)cc([C@@H]3CC[C@H](O)[C@@H](C)C3)n2n1
Result: 100 to 1000 nM

Q: Note IC50 for the compound shown: COC[C@H](C)Nc1ncc2c(-c3cnn(C(C)(C)C(=O)N4CCOCC4)c3)cc([C@@H]3CCc4cn[nH]c4C3)n2n1
Result: 1000 to 10000 nM

Q: Provide one value: measured IC50 of Cc1nccn1Cc1ccc(NC(=O)Nc2ccc(Oc3cc(Cl)ncn3)cc2)cc1C(F)(F)F
Result: 170 nM

Q: Provide measured IC50 value, entry: COC[C@H](C)Nc1ncc2c(-c3ccnc(OC(C)C)c3)cc([C@H]3CC[C@H](O)CC3)n2n1
Result: 1000 to 10000 nM

Q: Answer with reported IC50 of C[C@H](CC(F)(F)F)Nc1ncc2c(OC3CCOCC3)ncc([C@H]3CC[C@H](O)CC3)c2n1
Result: 1000 to 10000 nM

Q: Give IC50 for the following compound: CCN(CC)CCOc1ccc2cc1COC/C=C/CCOc1cccc(c1)-c1ccnc(n1)N2
Result: ≤ 1000 nM

Q: Provide IC50 value for the following compound: CC[C@H](C)Nc1ncc2c(NC3CCOCC3)ncc([C@H]3CC[C@H](O)CC3)c2n1
Result: 1000 to 10000 nM

Q: Item CN(C)c1ccc(-c2cc3nccnc3c(OC[C@@H]3CN(S(C)(=O)=O)CCO3)n2)cc1Cl : provide IC50
Result: 2420 nM

Q: Give me measured IC50, please, for this compound: CNC(=O)c1cncc(-c2cc([C@H]3CC[C@H](O)CC3)n3nc(N[C@@H](C)COC(F)F)ncc23)c1
Result: 1000 to 10000 nM

====

Below, IC50 values reported for Receptor-type tyrosine-protein kinase FLT3 (Homo sapiens) across several publications.

Here are 3 compounds together with their reported answers.
- COMPOUND: "Cc1nnc(Cn2cc(-c3cc([C@H]4CC[C@H](O)CC4)n4nc(N[C@@H](C)CC(F)(F)F)ncc34)cn2)o1"
  ASSAY_ENDPOINT: "IC50"
  READING: "≤ 100 nM"
- COMPOUND: "CCc1nc2c(N)ncc(-c3cnn(C4CC(C)(C)N(C)C(C)(C)C4)c3)c2nc1N[C@@H]1CC[C@H](O)C1"
  ASSAY_ENDPOINT: "IC50"
  READING: "≤ 10 nM"
- COMPOUND: "COCC(C)Nc1ncc2c(-c3cccc(CN4CCC(F)C4)c3)cc(C3CCC(O)CC3)n2n1 (stereo not shown)"
  ASSAY_ENDPOINT: "IC50"
  READING: "100 to 1000 nM"

Would you kindly look at the next entry?
Q: Report the value of IC50 obtained on Receptor-type tyrosine-protein kinase FLT3 (Homo sapiens) for CC(C)(C)c1cc(NC(=O)Nc2ccc(C#Cc3ccc(OCCN4CCOCC4)cc3)cc2)no1 .
Result: 84 nM
